# target_under_test: full length human PAR-2 (human, UniProt P55085 26-397)
# Sequence (P55085 26-397 G138A limits assumed): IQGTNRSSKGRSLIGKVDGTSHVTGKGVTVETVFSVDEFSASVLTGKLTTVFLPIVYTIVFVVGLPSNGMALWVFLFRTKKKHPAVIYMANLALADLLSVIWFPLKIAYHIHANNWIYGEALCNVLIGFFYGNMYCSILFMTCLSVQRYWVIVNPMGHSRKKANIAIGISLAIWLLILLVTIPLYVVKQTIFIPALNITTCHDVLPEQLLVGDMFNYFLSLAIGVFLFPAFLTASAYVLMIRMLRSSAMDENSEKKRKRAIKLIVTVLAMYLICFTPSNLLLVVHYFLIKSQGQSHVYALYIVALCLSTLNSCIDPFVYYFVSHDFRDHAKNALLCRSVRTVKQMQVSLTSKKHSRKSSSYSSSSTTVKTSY
# test_method_notes: cell-based or functional assay
readout_kind: IC50, NF-kB-luciferase, 10 nM Human Trypsin 1 (nM)

binder	units_text	recorded_number
H4H581P (antibody, human IgG4, V domains shown, also called mAb H4H581P; H1H581P variable regions) VH: QVQLVESGGGVVQPGRSLRLSCVASGFTFSRYGIHWVRQAPGKGLEWVIVISYDGINKYYADSVKGRFTISRDNSKNTVYLQMNSLRAEDTAVYYCAKGDFWSGYFDYWGQGTLVTVSS VL: DIVMTQTPLSSPVTLGQPASISCRSSQSLVHSDGNTYLSWLHQRPGQPPRLLIYKISNRFSGVPDRFSGSGAGTDFTLQISRVEAEDVGIYYCMQATQFPTFGGGTKVEIK	nM	7.4
H4H588N (antibody, human IgG4, V domains shown, also called H2M588N variable regions) VH: EVQLLESGGGLVQPGGSLRLSCAASGFTFSSYAMTWVRQAPGKGLYWVSAISGGRGSAYYADSVKGRFTISRDNSKNTLYLQMNSLRAEDTAVYYCAKEGDSGYDLAYWGRGTLVTVSS VL: DIQMTQSPSSLSASVGDRVTITCRARQGISNNLAWLQQKPGKAPKSLIYAASSLQSGIPSKFSGSGSGTYFTLTISSLQPEDFATYYCQQYKSSPLTFGGGTKVEIK	nM	42.7
H4H618N (antibody, human IgG4, V domains shown, also called H2M618N variable regions) VH: EVQLLESGGGLVQPGGSLRLSCAASGFTFRSYTMTWVRQAPGKGLDWVSGITDSGAGTYYGDSVKGRFTISRDNSKNTLYLQMNSLRAEDTAVYYCVKEGDSGYDLDYWGQGTLVTVSS VL: DIQMTQSPSSLSASVGDRVTITCRASQGISTYLAWLQQKPGKAPKSLIYATSSLQSGVPSKFSGSRSGTDFTLTISSLQPEDFATYYCQQYKSSPLTFGGGTKVEIK	nM	92.2
